compounds and their reported melting point

>>> result("COc1ccc(-c2nc(CN)no2)cc1")
"66 to 68 °C"
>>> result("O=C(Nc1nnn(CC(F)(F)F)n1)C1c2ccccc2Oc2ccccc21")
"209 to 210 °C"
>>> result("Cc1c(NC(=O)CC(C)(C)C)cc2c(c1C)OC(C)(C)C2(O)Cc1ccc(C(C)C)cc1 (configuration not stated)")
"177 to 178 °C"
>>> result("CC(=O)SCSc1nnn[nH]1")
"90 °C"

Prompt line: Form field: reported melting point of CCOC(=O)C1=Cc2cc(F)c(Cl)cc2N(Cc2ccccc2)C1
Response line: 211 to 212 °C

Prompt line: Data request, read-out melting point, for Cc1cc(C)c2nc(C)c(NC(=O)Nc3cccc(C(F)(F)F)c3)c(-c3ccccc3Cl)c2c1
Response line: 146 to 147 °C

Prompt line: What melting point value was documented for this compound, CC(Nc1ccc(Cl)c(Cl)c1)C(=O)NCC#N (configuration not stated) ?
Response line: 134 to 135 °C

Prompt line: Which value of melting point has been reported for CN1CCN(C)C1=Nc1ccccc1CN1CCOCC1 in the records?
Response line: 56 to 58 °C

Prompt line: Reported melting point for COc1cncnc1N1CCN(CCCc2c[nH]c3ccc(Nc4cc(=O)c4=O)cc23)CC1C (configuration not stated) : what is it?
Response line: 191 to 193 °C

Prompt line: // lookup melting point for Cc1ccc(S(=O)(=O)N2CCCC(S(=O)(=O)c3ccc(Cl)cc3)C2)cc1 (configuration not stated)
Response line: 186 to 187 °C

Prompt line: Fill in the blank: the reported melting point of O=C(O)c1ccc(Cl)c(S(=O)(=O)c2ccccc2[N+](=O)[O-])c1 is ____.
Response line: 242 to 246 °C

---

endpointLabel: melting point

>>> result("COCC1CN(c2ccc(C3CC4C=CC3C4)cc2)C(=O)O1 (racemic)")
"46 to 48 °C"

Prompt line: Could you share which melting point value was measured for CC(=O)NCC1CC1c1ccc(F)c2nn(C)cc12 (stereo unspecified) ?
Response line: 147 to 148 °C

Prompt line: // query melting point value for entry CCOc1ccc(-c2nc(CCC(=O)c3ncccc3OC)cs2)cc1OCC
Response line: 79.2 to 79.7 °C

Prompt line: # get_value(readout='melting point', item= O=C1CCCc2oc(-c3ccccc3)cc21 )
Response line: 132 to 134 °C

Prompt line: What does the record list as melting point for Cc1ccc(S(=O)(=O)N2CCC(NC(=O)Nc3ccc(OC(F)(F)F)cc3)CC2)cc1 ?
Response line: 205 to 207 °C

Prompt line: Return reported melting point; argument: COc1cc(C)nc(NC(=O)NS(=O)(=O)c2ccccc2C(CF)OC(C)=O)n1 (stereo unspecified)
Response line: 198 to 200 °C

Prompt line: So what's the measured melting point for this one? c1ncn(Cc2ccc3c(c2)-c2[nH]nc(-c4ccsc4)c2C3)n1
Response line: 243 to 245 °C

Prompt line: If you can, please state the reported melting point value of COc1ccc(-n2nnnc2C(F)(F)F)cc1[C@H]1CO[C@]2(CCCN(Cc3nc(=O)[nH][nH]3)[C@H]2c2ccccc2)C1 .
Response line: 186 to 187 °C

Prompt line: Field request: melting point | item: CCCCCCCCCCCCCCCCCCNC(=O)NCCCCCCN
Response line: 123 to 168 °C

Prompt line: Please give the measured melting point for this molecule: N#Cc1ccccc1-c1ccc(C(F)(F)F)c(Cl)c1
Response line: 138 to 140 °C

Prompt line: # input molecule: CC(=O)C1CCC2C3CCC4=CC(=O)C=CC4(C)C3CCC12C (stereo unspecified) ; wanted: its melting point
Response line: 183 to 185 °C

Prompt line: Entry CC(C)(C)NN=C(O)C(=O)c1ccccc1 : reported melting point = ?
Response line: 138 to 139 °C

Prompt line: What value of melting point has been reported for the following molecule? Nc1cc(-c2ncnc(C(F)F)c2Cl)c(F)cc1Cl
Response line: 106 to 108 °C

Prompt line: Query (molecule): CC(=O)Nc1cc(CN(C)C)c2ncc(C#N)c(Nc3cccc(Br)c3)c2c1 ; field requested: melting point
Response line: 162 to 167 °C

Prompt line: Need melting point of COc1ccc2cc([C@H](C)C(=O)OCC(=O)O)ccc2c1 , thanks.
Response line: 122 to 123 °C

Prompt line: For Cn1c(C(F)(F)F)cc(=O)n(-c2cc(OC3COC(=O)O3)c(Cl)cc2F)c1=O (stereo unspecified) , what is its reported melting point?
Response line: 165 to 167 °C

Prompt line: Query (molecule): CCCCCCCCCCCCC(Oc1ccc(O)c(C(C)(C)C)c1)C(=O)OCC (stereo unspecified) ; field requested: melting point
Response line: 45 to 48 °C

---

endpointLabel: melting point

Below are worked cases with known answers.
>>> result("Cc1cc(CCCOc2c(C)cc(-c3noc(C(N)=O)n3)cc2C)on1")
"177 to 178 °C"
>>> result("CNC(=O)N1CC(Oc2cccc(C(N)=O)c2)C1")
"238 to 240 °C"
>>> result("O=C(NCCO)/C(=C/c1ccc(OCC(F)F)cc1)NC(=O)c1ccc(OCCCC2CC2)cc1")
"149 to 151 °C"
>>> result("CC(C)(C)c1cc(C=C2SCN(CC#N)C2=O)cc(C(C)(C)C)c1O")
"186 to 188 °C"
>>> result("N#Cc1c(OCC(F)(F)F)nc(CCO)nc1N1CCc2ccccc2CC1")
"114 to 116 °C"

Prompt line: Dear colleague, I am looking for the recorded melting point of the following compound: C#CCCCCCCCCCCOc1cccc(C(N)=O)c1
Response line: 106 to 108 °C

Prompt line: Give the measured melting point of CN(Cc1cccc2ccccc12)c1ncnc2c(N3CCOCC3)nc(N3CCC(N(C)C)CC3)nc12 .
Response line: 146 to 148 °C

Prompt line: Which melting point reading was recorded for the compound Cc1nc(-c2ccc(C(F)(F)F)cc2)oc1COc1ccc(OCC(=O)O)cc1 ?
Response line: 136 to 138 °C

Prompt line: Quick one: melting point of COc1ccc(C(=O)O)nc1C ?
Response line: 183 °C

Prompt line: Tell me the measured melting point of CC(=O)Nc1nnnn1CC(I)=C(I)I , please.
Response line: 178 to 185 °C

---

In this section, each of the compounds is paired with its reported melting point.

Below, 6 compounds whose answers are already recorded.
>>> result("CCOc1nn(Cc2ccc(OCc3nc(-c4ccccc4)oc3C)cc2)cc1CC(=O)O")
"125 to 126 °C"
>>> result("O=C(O)[C@@H]1C[C@@H](SC(c2ccccc2)(c2ccccc2)c2ccccc2)CN1S(=O)(=O)c1ccc2ccccc2c1")
"64 to 69 °C"
>>> result("COc1ccccc1OCC(O)CN1CCC(NC(=O)NC(=O)c2ccc(F)cc2)CC1 (centres undefined)")
"194 to 195 °C"
>>> result("Nc1ccc(OCc2nc(Cl)ccc2Cl)cc1")
"74 to 75 °C"
>>> result("COc1ccc(-c2ccc(-c3ccc(F)cc3)nc2-c2ccc(OCc3ccccc3)cc2)cc1")
"114 to 115 °C"
>>> result("CO/N=C/c1ccc2c(c1Cn1ccnc1)OCO2")
"102 °C"

Prompt line: For CN1NN=C(c2ccc3c(c2)S(=O)(=O)c2ccccc2C3=O)N1 , what is its reported melting point?
Response line: 204 to 205 °C

Prompt line: Given O=c1nc(-c2cccc(CSCc3ccccc3)n2)sc2ccccc12 , state its recorded melting point.
Response line: 126 to 128 °C

Prompt line: Report melting point for CN1CCN(c2cccc3ccc(OC(=O)c4ccc(Cl)cc4)cc23)CC1 please.
Response line: 110 to 111 °C

---

endpointLabel: melting point

>>> result("CCCCCCc1cccc(N2CC(=O)NC(=O)N2)c1")
"95 to 99 °C"
>>> result("Cn1c2ccccc2c2cc(C(=O)N3CCOCC3)sc21")
"125 to 127 °C"
>>> result("Cc1oc(-c2ccco2)nc1COc1ccc(Cc2nc(-c3ccccc3)c(CCC(=O)O)o2)cc1")
"74 to 76 °C"
>>> result("O=C(O)CCC(=O)c1ccc(-c2ccccc2F)cc1")
"148 to 153 °C"
>>> result("Cc1c(NC(=O)CC(C)(C)C)cc2c(c1C)OC(C)(C)C2c1ccc(CO)cc1 (stereo not given)")
"162 to 163 °C"

Prompt line: Requested read-out: melting point. Entry: O=C(Oc1ccccc1)N1CC[C@@H](c2ccc(F)cc2)[C@H](CO)C1 (relative stereo)
Response line: 129 to 131 °C

Prompt line: Which measured melting point value corresponds to Nc1c(C(=O)c2cc(Cl)ccn2)[nH]c2cc(Cl)ccc12 ?
Response line: 234 to 235 °C

Prompt line: I have this molecule here, Nc1cc([N+](=O)[O-])ccc1Nc1cccc(-c2nccs2)c1 , and I need its recorded melting point.
Response line: 146 to 159 °C

Prompt line: Item CC(=NNc1nnc(-n2c(=S)[nH]c3ccccc32)s1)c1ccccn1 has what recorded melting point?
Response line: > 280 °C

Prompt line: Value lookup for melting point; key = CC12CCC3c4cc([N+](=O)[O-])c(O)cc4CCC3C1CCC2=O (stereo not given)
Response line: 178 to 180 °C
